# System: CAF#7 (primary prostate cancer-associated fibroblasts of myCAF-like type)
# protocol.summary: drug sensitivity score (DSS2, normalised partial AUC of dose-response, 72 h CellTiter-Glo viability) (DSS (dimensionless)); higher = more sensitive (stronger growth inhibition / cytotoxicity); extreme values may be limits of the assay
Assign T whenever drug sensitivity score does not fall below 10; assign F whenever it does.

Reference set (2 entries):
Is reported drug sensitivity score greater than or equal to 10 here: CC[C@@H](C(=O)[C@@H](C)[C@@H](O)[C@H](C)[C@@H]1O[C@@H]([C@@H](CC)C(=O)O)CC[C@@H]1C)[C@H]1O[C@]2(C=C[C@@H](O)[C@]3(CC[C@@](C)([C@H]4CC[C@](O)(CC)[C@H](C)O4)O3)O2)[C@H](C)C[C@@H]1C [Salinomycin] (tested concentration range 5-50000 nM)
T

And the next one, NC(=O)/C(=C/n1cnc(-c2cc(C(F)(F)F)cc(C(F)(F)F)c2)n1)c1cncnc1 [Eltanexor] (tested concentration range 1-10000 nM) ?
T

New cases:
Is reported drug sensitivity score greater than or equal to 10 here: C#Cc1cccc(Nc2ncnc3cc(OCCOC)c(OCCOC)cc23)c1 [Erlotinib] (tested concentration range 1-10000 nM)
F

And the next one, CNCc1ccc(-c2[nH]c3cc(F)cc4c3c2CCNC4=O)cc1 [Rucaparib] (tested concentration range 1-10000 nM) ?
F

And the next one, C1=N/C2=N/c3ccc(OCCN4CCCC4)c(c3)COC/C=C/COCc3cccc(c3)C(=C1)N2 [Pacritinib] (tested concentration range 1-10000 nM) ?
F

And the next one, Cc1sc2c(c1C)C(c1ccc(Cl)cc1)=N[C@@H](CC(=O)Nc1ccc(O)cc1)c1nnc(C)n1-2 [Birabresib] (tested concentration range 1-10000 nM) ?
F

And the next one, O=C(c1cccc(Cl)c1F)N1CCN(Cc2cccc(Nc3nccs3)n2)CC1 [MK-8745] (tested concentration range 1-10000 nM) ?
F

And the next one, CCC1=C[C@@H]2CN(C1)Cc1c([nH]c3ccccc13)[C@@](C(=O)OC)(c1cc3c(cc1OC)N(C)[C@H]1[C@@](O)(C(=O)OC)[C@H](OC(C)=O)[C@]4(CC)C=CCN5CC[C@]31[C@@H]54)C2 [Vinorelbine] (tested concentration range 1-10000 nM) ?
T

And the next one, NCC(=O)Nc1ccc(-n2nc(C(F)(F)F)cc2-c2ccc3c(ccc4ccccc43)c2)cc1 (tested concentration range 2.5-25000 nM) ?
F

And the next one, COc1cc(CCc2cc(NC(=O)c3ccc(N4CC(C)NC(C)C4)cc3)n[nH]2)cc(OC)c1 (stereo unspecified) [AZD4547] (tested concentration range 0.1-1000 nM) ?
T

And the next one, Nc1ncnc2c1c(COc1cccc(Cl)c1)nn2C1CCOCC1 (tested concentration range 1-10000 nM) ?
F

---

# Tested on: CAF#4 (primary prostate cancer-associated fibroblasts of iCAF-like type)
# protocol.summary: drug sensitivity score (DSS2, normalised partial AUC of dose-response, 72 h CellTiter-Glo viability) (DSS (dimensionless)); higher = more sensitive (stronger growth inhibition / cytotoxicity); extreme values may be limits of the assay
quantity.measured: drug sensitivity score
Output spec: single numeric token, no unit.

# returns recorded drug sensitivity score (system: CAF#4) for CC(C)[C@@H](CS(=O)(=O)C(C)C)N1C(=O)[C@@](C)(CC(=O)O)C[C@H](c2cccc(Cl)c2)[C@H]1c1ccc(Cl)cc1 [KRT-232] (tested concentration range 1-10000 nM)
8.6

And the next one, CCC/C=C/C=C/C(=O)O[C@H]1/C(=C/C(=O)OC)C[C@H]2C[C@H]([C@@H](C)O)OC(=O)C[C@H](O)C[C@@H]3C[C@H](OC(C)=O)C(C)(C)[C@](O)(C[C@@H]4C/C(=C/C(=O)OC)C[C@H](/C=C/C(C)(C)[C@]1(O)O2)O4)O3 [Bryostatin 1] (tested concentration range 0-100 nM) ?
0.5

And the next one, N#CCNC(=O)c1ccc(-c2ccnc(Nc3ccc(N4CCOCC4)cc3)n2)cc1 [Momelotinib] (tested concentration range 1-10000 nM) ?
2.8

And the next one, O=c1sn(-c2cccc3ccccc23)c(=O)n1Cc1ccccc1 [Tideglusib] (tested concentration range 0.3-3000 nM) ?
0

And the next one, CCN(CC)C(=S)SSC(=S)N(CC)CC [Disulfiram] (tested concentration range 5-50000 nM) ?
0.9

And the next one, CNC(=O)c1ccc(N2C(=S)N(c3ccc(C#N)c(C(F)(F)F)c3)C(=O)C2(C)C)cc1F [Enzalutamide] (tested concentration range 1-10000 nM) ?
2.2

And the next one, O=C(CCCCCCC(=O)Nc1ccc([C@H]2O[C@@H](CSc3nc(-c4ccccc4)c(-c4ccccc4)o3)C[C@@H](c3ccc(CO)cc3)O2)cc1)NO [Tubacin] (tested concentration range 1-10000 nM) ?
1.4

And the next one, O[C@H]1CC[C@H](Nc2ncc3nc(Nc4c(F)cc(F)cc4F)n([C@H]4CCOC4)c3n2)CC1 [Tanzisertib] (tested concentration range 1-10000 nM) ?
0

New cases:
# returns recorded drug sensitivity score (system: CAF#4) for O=C(O)CNC(=O)c1c(O)c2ccccc2n(Cc2ccccc2)c1=O [IOX-2] (tested concentration range 2.5-25000 nM)
0

And the next one, NC(=S)N/N=C/c1ncccc1N [Triapine] (tested concentration range 1-10000 nM) ?
0

And the next one, CN(C)C(=O)c1ccc(S(=O)(=O)c2ccc(NC(=O)[C@@](C)(O)C(F)(F)F)c(Cl)c2)cc1 [AZD7545] (tested concentration range 1-10000 nM) ?
0

And the next one, CON(C)C(=O)N1N=C(c2cc(F)ccc2F)S[C@@]1(CCCN)c1ccccc1 [Filanesib] (tested concentration range 0.1-1000 nM) ?
6

And the next one, C[C@]12CC[C@@H]3c4ccc(O)cc4C[C@@H](CCCCCCCCC[S+]([O-])CCCC(F)(F)C(F)(F)F)[C@H]3[C@@H]1CC[C@@H]2O (stereo partly specified) [Fulvestrant] (tested concentration range 0.1-1000 nM) ?
0

And the next one, NC(=O)/C(=C/n1cnc(-c2cc(C(F)(F)F)cc(C(F)(F)F)c2)n1)c1cncnc1 [Eltanexor] (tested concentration range 1-10000 nM) ?
15.5

And the next one, Oc1ccc2c(c1)CC[C@H](c1ccccc1)[C@@H]2c1ccc(OCCN2CCCC2)cc1 [Lasofoxifene] (tested concentration range 0.1-1000 nM) ?
0

And the next one, CCS(=O)(=O)N1CC(CC#N)(n2cc(-c3ncnc4[nH]ccc34)cn2)C1 [Baricitinib] (tested concentration range 0.2-2500 nM) ?
0

And the next one, C[C@@]1(C(=O)Nc2ccc(F)nc2)CCCN1c1nc(Nc2cc(C3CC3)n[nH]2)c2cccn2n1 (tested concentration range 1-10000 nM) ?
7.9

And the next one, CNC(=O)c1ccccc1Sc1ccc2c(/C=C/c3ccccn3)n[nH]c2c1 [Axitinib] (tested concentration range 1-10000 nM) ?
4.2

And the next one, C=CC(=O)N1CC/C(=C\c2ccc(F)c([N+](=O)[O-])c2)C(=O)/C(=C/c2ccc(F)c([N+](=O)[O-])c2)C1 [VLX1570] (tested concentration range 1-10000 nM) ?
28

And the next one, CC[C@H](C)C(=O)O[C@H]1C[C@@H](C)C=C2C=C[C@H](C)[C@H](CC[C@@H]3C[C@@H](O)CC(=O)O3)[C@H]21 [Lovastatin] (tested concentration range 1-10000 nM) ?
3.4

And the next one, C[C@@H](Nc1cc(F)cc(F)c1)c1cc(C(=O)N(C)C)cc2c(=O)cc(N3CCOCC3)oc12 [AZD-8186] (tested concentration range 0.1-1000 nM) ?
2.8

---

# Test system: CAF#2 (primary prostate cancer-associated fibroblasts of iCAF-like type)
# protocol.summary: drug sensitivity score (DSS2, normalised partial AUC of dose-response, 72 h CellTiter-Glo viability) (DSS (dimensionless)); higher = more sensitive (stronger growth inhibition / cytotoxicity); extreme values may be limits of the assay
As shown below, each of these molecules has a reported drug sensitivity score value.
Output spec: single numeric token, no unit.

Which value of drug sensitivity score has been reported for CC[C@@](C)(Nc1ccnc(-c2c[nH]c3ncccc23)n1)C(=O)NCC(F)(F)F [Decernotinib] (tested concentration range 1-10000 nM) in the records?
0.1

---

# Tested on: CAF#3 (primary prostate cancer-associated fibroblasts of myCAF-like type)
# protocol.summary: drug sensitivity score (DSS2, normalised partial AUC of dose-response, 72 h CellTiter-Glo viability) (DSS (dimensionless)); higher = more sensitive (stronger growth inhibition / cytotoxicity); extreme values may be limits of the assay
quantity.measured: drug sensitivity score

Please review the following examples before continuing.
Which value of drug sensitivity score has been reported for CC(C)c1c(C(=O)Nc2ccccc2)c(-c2ccccc2)c(-c2ccc(F)cc2)n1CC[C@@H](O)C[C@@H](O)CC(=O)O [Atorvastatin] (tested concentration range 1-10000 nM) in the records?
6.1

And the next one, CC(C)n1cnc2c(NCCc3ccc(O)cc3)nc(-c3csc4ccccc34)nc21 [StemRegenin 1] (tested concentration range 1-10000 nM) ?
3.5

And the next one, O=C(O)c1ccc2c(c1)nc(Nc1cccc(Cl)c1)c1ccncc12 [Silmitasertib] (tested concentration range 1-10000 nM) ?
0.7

And the next one, CS(=O)(=O)c1ccc(C(=O)Nc2ccc(Cl)c(-c3ccccn3)c2)c(Cl)c1 [Vismodegib] (tested concentration range 1-10000 nM) ?
1.5

And the next one, Cc1ccc(C(=O)N(CCCN)[C@@H](c2oc3cc(Cl)ccc3c(=O)c2Cc2ccccc2)C(C)C)cc1 (tested concentration range 0-100 nM) ?
0.4

New cases:
Which value of drug sensitivity score has been reported for NS(=O)(=O)OC[C@@H]1C[C@@H](n2ccc3c(N[C@H]4CCc5ccccc54)ncnc32)C[C@@H]1O [Pevonedistat] (tested concentration range 1-10000 nM) in the records?
0

And the next one, C[C@@H](Oc1cc(-c2cnn(C3CCNCC3)c2)cnc1N)c1c(Cl)ccc(F)c1Cl [Crizotinib] (tested concentration range 0.1-1000 nM) ?
2.7

And the next one, CCCOc1ccn2c(C(C)=O)cc(-c3ccccc3S(C)(=O)=O)c2c1 [GSK2801] (tested concentration range 1-10000 nM) ?
0

And the next one, COc1cc([C@@H]2c3cc4c(cc3[C@@H](O[C@@H]3O[C@@H]5CO[C@@H](c6cccs6)O[C@H]5[C@H](O)[C@H]3O)[C@H]3COC(=O)[C@H]23)OCO4)cc(OC)c1O [Teniposide] (tested concentration range 1-10000 nM) ?
0

And the next one, COC(=O)c1ccc2c(c1)NC(=O)/C2=C(\Nc1ccc(N(C)C(=O)CN2CCN(C)CC2)cc1)c1ccccc1 [Nintedanib] (tested concentration range 1-10000 nM) ?
9.3

And the next one, CN1C(=O)N[C@H](Cc2c[nH]c3c(Cl)cccc23)C1=O [Necrostatin 2] (tested concentration range 1-10000 nM) ?
0

And the next one, C[C@@H]1CCN(C(=O)CC#N)C[C@@H]1N(C)c1ncnc2[nH]ccc12 [Tofacitinib] (tested concentration range 0.5-5000 nM) ?
1.6

And the next one, CC(=O)O[C@@]12CO[C@@H]1C[C@H](O)[C@@]1(C)C(=O)[C@H](O)C3=C(C)[C@@H](OC(=O)[C@H](O)[C@@H](NC(=O)OC(C)(C)C)c4ccccc4)C[C@@](O)([C@@H](OC(=O)c4ccccc4)[C@H]21)C3(C)C [Docetaxel] (tested concentration range 0.1-1000 nM) ?
12.8
